Reference source for all entries: PubChem BioAssay (NCI)

- Test system: DU-145 prostate
- assay summary: NCI-60 one-dose screen, 48 h (100 = growth as untreated, 0 = no growth, -100 = all killed)
- condition description: 10 µM
About 83,000 compounds went through this panel and 20% of them were active in at least one assay; those are over-represented in the sample as a whole.

# molecule, growth / %
rows = [
    ("CCOC(=O)c1ccc(NC(=O)CSC(CC(=O)c2sc(Nc3ccccn3)nc2C)c2ccccc2F)cc1 (configuration not stated)", 1.39),
    ("COc1ccc(C2OC[C@@]3(C)C4CC[C@]5(C)C(CC=C6C7CC(C)(C)CC[C@]7(C(=O)O)CC[C@]65C)[C@@]4(C)C[C@@H](O)[C@@H]3O2)cc1 (some centres not stated)", 76.3),
    ("CCn1c(SCC(=O)Nc2ccc(-c3nc4ccccc4[nH]3)cc2)nc2ccccc2c1=O", -50.3),
    ("CC1[C@H]2[C@H](C[C@H]3[C@@H]4CC=C5c6sc(Nc7cccc(Cl)n7)nc6CC[C@]5(C)[C@H]4CC[C@@]32C)O[C@]12CC[C@@H](C)CO2 (some centres not stated)", 99.1),
    ("COc1cc2oc(-c3cccc(C(=O)Nc4ccc(Cl)cc4)c3)cc(=O)c2c(OCCNC(=O)[C@@H](N)CO)c1OC", 77),
    ("O=C(CN1CCN(c2ncnc3c2cnn3-c2ccccc2)CC1)Nc1ccc(Br)cc1", 67.9),
    ("COc1ccc(Cc2nn(CC(=O)N/N=C/c3ccc([N+](=O)[O-])cc3)c(=O)c3c(C)noc23)cc1", 88.4),
]

====

- Tested on: MDA-MB-468 breast
- assay summary: NCI-60 one-dose screen, 48 h
- condition description: 10 µM unless noted
Compounds without any hit were thinned out: in the full panel of roughly 83,000, 20% have a hit. The source made the active and inactive calls. Rule for the calls: active = growth percent below 10; inactive = the rest.
Outcome codes: active, inactive

# compound, classification
rows = [
    ("CCOc1ccccc1C(=O)N1CCN(c2cc(Cl)cc(Cl)c2)CC1", "active"),
    ("O=C(NCc1ccc(Cn2c(=O)sn(-c3ccccc3)c2=O)cc1)OCc1ccc2cccc(O)c2n1", "active"),
    ("Cc1cccc(N2CCC(=O)NC2=S)c1", "inactive"),
    ("CC(C)n1nc(C#Cc2cccc3cc(-c4cccc(C(F)(F)F)c4)ncc23)c2c(N)ncnc21", "inactive"),
    ("S=C(c1ccc2c(c1)OCO2)N1CCN(c2ccccc2Cl)CC1", "inactive"),
    ("Cc1cc(=NO)cc(C)n1O", "inactive"),
    ("NNC(=O)c1ccccc1N", "inactive"),
    ("COc1cc(-c2n/c(=C\\c3c(O)[nH]c4ccc(Cl)cc34)cc3c2=Nc2ccccc2-3)cc(OC)c1OC", "inactive"),
    ("O=C(c1ccc(Cl)cc1)N1CCN(c2ccnc3cc(Cl)ccc23)CC1", "inactive"),
    ("C[C@H]1[C@H]2[C@H]3CC[C@@H]4[C@@]5(C)C/C(=C/c6cccnc6)C(=O)C(C)(C)[C@@H]5CC[C@@]4(C)[C@]3(C)CC[C@]23CO[C@]1(C)[C@@H](C(=O)/C=C\\c1cccnc1)C3", "active"),
    ("CN(C)CCS(=O)(=O)Nc1cc(-c2ccc3ncc(C#N)c(Nc4ccc(F)c(Cl)c4)c3c2)cnc1Cl", "active"),
    ("CSc1ccc(Cl)c(C(=O)Nc2sccc2C(N)=O)c1", "active"),
    ("CCCCCCCCCCCCCCCCSC(=NCC)NCC", "active"),
    ("CCc1nnc(NC(=O)c2nnn(-c3ccccc3)c2-c2ccco2)s1", "inactive"),
    ("COC(=O)C(Cc1cn(C(C)=O)c2ccccc12)P(=O)(OC)OC (stereo unspecified)", "inactive"),
    ("O=C(NCCNc1nccc(-c2c(-c3cccc(O)c3)nc3sccn23)n1)c1cc(N2CCOCC2)cc(C(F)(F)F)c1", "inactive"),
    ("COc1ccc(C2C=C(c3ccc(OC)c(OC)c3)N=C3SC=CN32)c(Br)c1 (stereo unspecified)", "inactive"),
    ("C=C1C(=O)O[C@H]2[C@H]1CC/C(COC(=O)c1cn(C)c3ccccc13)=C\\CC[C@@]1(C)O[C@@H]21", "active"),
    ("CCCCCCCCCc1ccc(OC(C)=O)cc1", "inactive"),
    ("Cc1c(Cc2ccccc2)c(=O)oc2c(C)c(OCC(=O)n3nc(C#N)cc3N)ccc12", "inactive"),
    ("Cc1[nH]c(-c2ccc3cc[nH]c3c2)c2c1C(=O)CCCC2", "inactive"),
]

====

- System: 786-0 renal
- assay summary: NCI-60 one-dose screen, 48 h (100 = growth as untreated, 0 = no growth, -100 = all killed)
- condition description: 10 µM
About 83,000 compounds went through this panel and 20% of them were active in at least one assay; those are over-represented in the sample as a whole.

# molecule, growth [%]
data = [
    ("C#CCOc1cc(N(CC)CC)ccc1C(C(=O)NC(C)(C)C)N(C(=O)C1CCc2cc(F)ccc2O1)c1ccc(F)cc1F (stereo not drawn)", 53.9),
    ("C#C[C@]1(O)CC[C@H]2[C@@H]3CC=C4c5sc(Nc6ccc(N(C)C)cc6)nc5CC[C@]4(C)[C@H]3CC[C@@]21C", -54.6),
    ("Cn1cc(/C=C(/SS/C(=C/c2cn(C)c3cccc(C(=O)O)c23)C(=O)O)C(=O)O)c2c(C(=O)O)cccc21", 104),
    ("CCOC(=O)c1ccc(NC(=O)CSC(CC(=O)c2sc(Nc3ccccn3)nc2C)c2ccccc2F)cc1 (stereo not drawn)", -12.5),
    ("O=C(CC(=O)Nc1ccc(Oc2ncnc3scc(Nc4n[nH]c(=S)s4)c23)cc1)Nc1ccc(Cl)cc1", 101),
    ("COc1ccc(C(=O)COc2ccc(NC(=O)Nc3ccccc3)cc2)cc1", 94),
    ("Fc1ccc(-c2csc(Nc3cccc(Nc4nc(-c5ccc(F)cc5)cs4)c3)n2)cc1", 68.8),
    ("COc1ccc(-n2c(SCC(=O)NNS(=O)(=O)c3ccccc3)nc3ccc(Cl)cc3c2=O)cc1", 101),
    ("CCOc1ccc(/C=N/NC(=O)Cn2nc(Cc3ccc(OC)cc3)c3onc(C)c3c2=O)cc1", -40.3),
    ("COc1ccc(Cc2nn(CC(=O)N/N=C/c3ccc([N+](=O)[O-])cc3)c(=O)c3c(C)noc23)cc1", 26.3),
    ("O=C(CC(=O)Nc1ccc(Oc2ncnc3scc(Nc4n[nH]c(=S)s4)c23)cc1)Nc1ccc(Br)cc1", 109),
    ("C#C[C@]1(O)CC[C@H]2[C@@H]3CC=C4c5sc(Nc6cc(C)cc(C)n6)nc5CC[C@]4(C)[C@H]3CC[C@@]21C", -52.2),
    ("Cn1cc(-c2nnc(N)nc2-c2c[nH]c3ccccc23)c2cc(Br)cnc21", 40.1),
    ("Cn1cc(-c2cc3nc(-c4c[nH]c5ccccc45)cc(N)n3n2)c2cc(Cl)ccc21", -85.7),
    ("O=C1NC2C=CC=CC2/C1=C1/SC(=S)N(C2CC(=O)N(c3ccc(Br)cc3)C2=O)C1=O (stereo not drawn)", 97.5),
    ("COc1ccc(C(=O)COc2ccc(NC(=O)Nc3ccc(Cl)c(C(F)(F)F)c3)cc2)cc1", 25.2),
    ("O=C(c1ccc(F)cc1)C(c1c[nH]c2ccccc12)c1c[nH]c2ccccc12", 80.1),
    ("COc1cc(C2CC(c3ccccc3)=Nc3c(N)nc(N)nc3N2)ccc1Oc1nc(NCCO)nc(N2CCOCC2)n1 (stereo not drawn)", 89.2),
]

====

- System: MDA-MB-468 breast
- assay summary: NCI-60 one-dose screen, 48 h
- condition description: 10 µM unless noted
The panel holds about 83,000 compounds, 20% with a hit somewhere; the sample as a whole holds those more often. Calls of active or inactive are those of the source. Rule for the calls: active = growth percent below 10; inactive = the rest.
Outcome codes: Y (active), N (inactive)

# compound, classification
measured = [
    ("COc1cc(C(=O)c2c(N)ncn2-c2ccccc2)cc(OC)c1OC", "N"),
    ("O=C(/C=C/CN1CCOCC1)Nc1cc2c(Nc3ccc(F)c(Cl)c3F)ncnc2cc1OCCOC(F)F", "Y"),
    ("CC1=C(CCC(C)N(C)Cc2ccc(OCCCN3CCCC3)cc2)C(C)(C)CCC1 (stereo unspecified)", "Y"),
    ("C#C[C@]1(O)CC[C@H]2[C@@H]3CC=C4c5sc(Nc6ccc(C(F)(F)F)cn6)nc5CC[C@]4(C)[C@H]3CC[C@@]21C", "Y"),
    ("CC(c1cc(Cl)ccc1O)c1cc(Cl)ccc1O", "Y"),
    ("Cc1nc2ccccc2c(/C=C/c2ccc(Cl)cc2)c1C(=O)/C=C/c1cccs1", "N"),
    ("CCOc1ccc(S(=O)(=O)Nc2ccc3c(c2)N(S(=O)(=O)CC)CCC3)cc1", "N"),
    ("COC(=O)C1(C)COP(=O)(Nc2ccc(OC)cc2)OC1 (stereo unspecified)", "N"),
    ("C/C(=C\\c1ccc([N+](=O)[O-])cc1)C(=O)O", "N"),
    ("C[N+]1(C)C2CC[C@@H]1CC(OC(=O)C(O)c1ccccc1)C2 (stereo partly specified)", "N"),
    ("COc1cc2c(cc1OC)-c1cc(OC)c(OC)cc1C(CN(C)C)C2 (stereo unspecified)", "N"),
    ("COc1ccc(C2NC3=C(CCCC3)C(C#N)(C#N)C2(C#N)C#N)cc1 (stereo unspecified)", "N"),
    ("Cc1ccccc1Nc1nc2nonc2nc1Nc1cccc(C)c1C", "N"),
    ("Cc1cc(CSc2ccc(Cl)cc2)ccc1N", "N"),
    ("CC(=O)c1nc2ccccc2n1CCn1cc(CC(N)C(=O)O)c2ccccc21 (stereo unspecified)", "N"),
    ("Cc1ccc(-n2cc(/C=N/NC(=O)c3ccncc3)c(-c3ccc(S(C)(=O)=O)cc3)n2)cc1", "N"),
    ("O=C1C=C[C@]2(C[C@@H](c3cccc(C(F)(F)F)c3)O[C@@H](c3cccc(C(F)(F)F)c3)O2)O1", "Y"),
    ("COc1cc(C(=O)c2cc(C(C)=O)c3c(C)cccn23)cc(OC)c1OC", "N"),
    ("CSc1nc2c(c(=O)n1C)C1(C(=O)N(Cc3ccccc3)c3ccccc31)c1c(nc(SC)n(C)c1=O)N2", "N"),
    ("N#C/C(=C1C=C/C(=N/O)C(Cl)=C/1)c1ccc(Cl)cc1", "Y"),
    ("CC(=O)[C@H]1CC[C@H]2[C@@H]3CC[C@@H]4CC=C(C=O)C[C@]4(C)[C@H]3CC[C@]12C", "N"),
    ("COc1ccc(-c2csc(NC(=O)Nc3nc(-c4ccc(OC)cc4)cs3)n2)cc1", "N"),
    ("O=C(CN1CCN(c2cc3c(cc2F)c(=O)c(C(=O)O)cn3C2CC2)CC1)Nc1nc(-c2ccc(Cl)cc2)cs1", "N"),
    ("CN1CCN(Cc2ccc(NC(=O)c3[nH]ncc3Nc3cc(OC4CCCC4)ncn3)cc2)CC1", "N"),
    ("CC/C(Cc1ccccc1)=C(\\c1ccc(OCCCN(C)C)cc1)c1ccc(OC(=O)NCc2ccccc2)cc1", "N"),
    ("CCOC(=O)c1cc(C#N)n2ncc3ccccc3c12", "N"),
    ("Cc1c2cc[nH]c(=O)c2c(C)c2c1[nH]c1cc(OCCN3CCN(C)CC3)ccc12", "Y"),
    ("CC1SC(c2cccc(Oc3ccccc3)c2)N(CCc2cccs2)C1=O (stereo unspecified)", "Y"),
    ("NS(=O)(=O)c1cccc(Nc2nc(SCC(=O)c3ccc([N+](=O)[O-])cc3)nc3ccccc23)c1", "Y"),
    ("CCOC(=O)c1cc(C(=O)c2cc(OC)c(OC)c(OC)c2)n2ccc(-c3cc[n+](CC(=O)c4cc(OC)c(OC)c(OC)c4)cc3)cc12", "N"),
    ("COc1ccc2c(c1)OC(N)=C(C#N)C2c1ccc(F)cc1 (stereo unspecified)", "Y"),
    ("O=CNc1ccc2c(c1)Cc1cccc(NC=O)c1-2", "N"),
    ("Cn1ccnc1CN1CCSC(C(=O)Nc2ccccc2)C1 (stereo unspecified)", "N"),
    ("CCN(CC)CCNc1ccc([N+](=O)[O-])c2sc3ccccc3c(=O)c12", "Y"),
    ("CNC(=O)c1ccc(Nc2ncc(C(F)(F)F)c(NCc3nccnc3N(C)S(C)(=O)=O)n2)cc1", "Y"),
    ("Nc1ncc(-c2ccc(C(F)(F)F)cc2)c(NC2CCCCCC2)n1", "Y"),
    ("O=C(CN1CCN(c2cc(=O)[nH]c3ccc(F)cc23)CC1)N(c1ccccc1)c1ccccc1", "N"),
    ("Nc1ccc(-c2nnc(SCc3ccc(O)c4ncccc34)n2-c2ccccc2)cc1", "Y"),
    ("CC1CC(C)S(=O)(=O)C1 (stereo unspecified)", "N"),
    ("COc1ccc(C(=O)N2NC(=O)/C(=C/c3ccc(Br)cc3)N=C2c2ccccc2)cc1", "N"),
    ("C=C(C)[C@H]1CC/C(C)=C/CC[C@]2(C)O[C@H]2CC/C(C=O)=C\\C1O (stereo partly specified)", "N"),
]
